tested on: U-251; test: NCI tumour cell line growth inhibition, 48 h
Activity calls are given as the source filed them. Rule as the data show it: active = GI50 up to about 1.1 µM and inactive = higher.
Mark one answer only. Choices: active, inactive

Worked set:
# compound, system, answer label
rows = [
    ("CCOC(=O)C1C(=O)CC(C)(O)C(C(=O)OCC)C1c1ccc(O)c(OC)c1 (centres undefined)", "U-251", "inactive"),
    ("CCN(CC)CCC(=O)c1ccc(C)cc1", "U-251", "inactive"),
    ("CC1(C)[C@@H](Cn2ccc(=O)[nH]c2=O)CC[C@@]1(C)CO", "U-251", "inactive"),
    ("COc1c2c3c4c(c(OC)c(=O)c5c(O)cc(OC)c(c6c(OC)cc(O)c(c1=O)c63)c54)C(C(C)O)C2C(C)=O (centres undefined)", "U-251", "active"),
    ("CCN(CC)CCCNc1nncc2c(C)c3[nH]c4ccc(OC)cc4c3cc12", "U-251", "active"),
    ("CCOC(=O)/C(=C/NC(=S)Nc1c(CC)cccc1C(C)(C)C)C(=O)c1ccccc1", "U-251", "inactive"),
    ("CC1=C(C#N)C23C(=O)c4ccccc4C(=O)C2=C(O)C=CC3(O)N1 (centres undefined)", "U-251", "inactive"),
    ("Cc1[nH]c2ccccc2c1C1Cc2ccccc2N1C(=O)/C=C/C(=O)O (centres undefined)", "U-251", "inactive"),
    ("CN(C)CCNCc1c2ccccc2c(CNCCN(C)C)c2ccccc12", "U-251", "inactive"),
    ("C=C1CC(COc2cc(=O)oc3ccccc23)(c2ccccc2)OC1=O (centres undefined)", "U-251", "inactive"),
]

Problem: For CC(=O)O[C@H]1C(=O)[C@@]2(C)[C@H]([C@H](OC(=O)C3CCCCC3)[C@]3(O)C[C@H](OC(=O)[C@H](O)[C@@H](NC(=O)OC(C)(C)C)c4ccccc4)C(C)=C1C3(C)C)[C@]1(OC(C)=O)CO[C@@H]1C[C@@H]2O , which call appears in the assay record?
Solution: active

Problem: Which outcome was assigned to ClC(Cl)(Cl)C1CCOC1n1nnc2ccccc21 (centres undefined) in this test?
Solution: inactive

Problem: Write down the call the test reported for this compound. Item: CC(C)(C)C1=C(Br)C(OC(=O)C(F)(F)F)(C(C)(C)C)OP1(=O)c1ccccc1 (centres undefined)
Solution: inactive

The values you see were collected from ChEMBL document CHEMBL1201862.
